- Test system: 616215-338-R-J1-PDC spheroids with HUVEC/MSC, viability
- assay info: Anticancer human tumor 616215-338-R-J1-PDC patient-derived colon adenocarcinoma cell line growth inhibition [PI3K]
- run conditions: second compound 0.316 µM; first compound 1 µM; active compounds read low
Listed next: entries and their corresponding viability, T/C.

compound	quantity unit	viability, T/C
CC(Cn1ccc(-c2ccc(C#N)c(Cl)c2)n1)NC(=O)c1cc(C(C)O)[nH]n1 (centres undefined) + CC(Nc1ccc2c(c1)OCCn1cc(N3C(=O)OCC3C(F)F)nc1-2)C(N)=O	%	101
CC1(C)CCC(CN2CCN(c3ccc(C(=O)NS(=O)(=O)c4ccc(NCC5CCOCC5)c([N+](=O)[O-])c4)c(Oc4cnc5[nH]ccc5c4)c3)CC2)=C(c2ccc(Cl)cc2)C1 + CC(Nc1ncnc2nc[nH]c12)c1cc2cccc(Cl)c2c(=O)n1-c1ccccc1	%	103
Cn1ncc(Cl)c1-c1cc(C(=O)NC(CN)Cc2cccc(F)c2)sc1Cl (centres undefined) + COc1c(OCCCN2CCOCC2)ccc2c3n(c(=NC(=O)c4cnc(N)nc4)nc12)CCN3	%	32
CC1(C)CCC(Nc2ncc(C(F)(F)F)c(-c3c[nH]c4c(P(C)(C)=O)c(C#N)ccc34)n2)CN1 (centres undefined) + CC(Nc1ncnc2nc[nH]c12)c1cc2cccc(Cl)c2c(=O)n1-c1ccccc1	%	42.3
C[C@@H](NC(=O)c1ncnc(N)c1Cl)c1ncc(C(=O)Nc2cc(C(F)(F)F)c(Cl)cn2)s1 + CC(Nc1ncnc2nc[nH]c12)c1cc2cccc(Cl)c2c(=O)n1-c1ccccc1	%	110
Cn1nccc1Nc1nccc(-c2ccn(C(CO)c3ccc(Cl)c(F)c3)c(=O)c2)n1 (centres undefined) + Cc1nc(NC(=O)N2CCCC2C(N)=O)sc1-c1ccnc(C(C)(C)C(F)(F)F)c1	%	72.1
CC1(C)CCC(Nc2ncc(C(F)(F)F)c(-c3c[nH]c4c(P(C)(C)=O)c(C#N)ccc34)n2)CN1 (centres undefined) + CC(Nc1ccc2c(c1)OCCn1cc(N3C(=O)OCC3C(F)F)nc1-2)C(N)=O	%	71.9
C=CC(=O)N1CCN(c2nc(=O)n(-c3c(C)ccnc3C(C)C)c3nc(-c4c(O)cccc4F)c(F)cc23)C(C)C1 (centres undefined) + CC(Nc1ccc2c(c1)OCCn1cc(N3C(=O)OCC3C(F)F)nc1-2)C(N)=O	%	100
CNC(=O)c1ccc(N2C(=S)N(c3ccc(C#N)c(C(F)(F)F)c3)C(=O)C2(C)C)cc1F + Cc1nc(NC(=O)N2CCCC2C(N)=O)sc1-c1ccnc(C(C)(C)C(F)(F)F)c1	%	97.9

====

Listed next: entries and their corresponding viability, T/C.
- Tested on: 616215-338-R-J1-PDC spheroids with HUVEC/MSC, viability
- assay info: Anticancer human tumor 616215-338-R-J1-PDC cell line growth inhibition [PI3K];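 further: spheroids exposed to agents for seven days before the viability read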
- run conditions: second compound 0.0316 µM; first compound 3.16 µM; active compounds read low

compound	viability, T/C, %
CC(Cn1ccc(-c2ccc(C#N)c(Cl)c2)n1)NC(=O)c1cc(C(C)O)[nH]n1 (stereo not drawn) + CC(Nc1ncnc2nc[nH]c12)c1cc2cccc(Cl)c2c(=O)n1-c1ccccc1	116
CC(C)NCC(C(=O)N1CCN(c2ncnc3c2C(C)CC3O)CC1)c1ccc(Cl)cc1 (stereo not drawn) + CC(Nc1ncnc2nc[nH]c12)c1cc2cccc(Cl)c2c(=O)n1-c1ccccc1	57.9
Cn1nccc1Nc1nccc(-c2ccn(C(CO)c3ccc(Cl)c(F)c3)c(=O)c2)n1 (stereo not drawn) + Cc1nc(NC(=O)N2CCCC2C(N)=O)sc1-c1ccnc(C(C)(C)C(F)(F)F)c1	47.8

The origin of these recorded values is PubChem BioAssay AID1963978.
